target: T1, human MSLN-R2-his protein (human, UniProt Q13421 391-486); assay: ELISA on coated antigen, antibody 0.002 nM
T1 construct: it is put last here; also called human MSLN-R2 protein; hMSLN-R2-his; not shown: His tag
T1 sequence (Q13421 other isoform, or with tags, fused parts or gaps): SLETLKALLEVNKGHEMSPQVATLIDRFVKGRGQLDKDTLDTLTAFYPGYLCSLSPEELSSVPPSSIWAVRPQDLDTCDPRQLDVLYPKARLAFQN
experimentalReadout: OD450 (OD)
One number for each entry, in OD.

| binder | number |
| --- | --- |
| S009-F7.66.12 (antibody, human IgG1, kappa, V domains shown, Human-murine chimeric antibody, human IgG1 heavy and kappa light constant regions) VH: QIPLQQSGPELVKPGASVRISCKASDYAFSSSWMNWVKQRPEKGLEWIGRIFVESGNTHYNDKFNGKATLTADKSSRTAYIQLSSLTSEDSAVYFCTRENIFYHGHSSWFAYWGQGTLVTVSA VL: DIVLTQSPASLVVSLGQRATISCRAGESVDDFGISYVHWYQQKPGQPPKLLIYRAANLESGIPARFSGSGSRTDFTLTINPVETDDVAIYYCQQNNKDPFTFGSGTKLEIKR | 0.05 |
| S009-F7.33.24 (antibody, human IgG1, kappa, V domains shown, Human-murine chimeric antibody, human IgG1 heavy and kappa light constant regions) VH: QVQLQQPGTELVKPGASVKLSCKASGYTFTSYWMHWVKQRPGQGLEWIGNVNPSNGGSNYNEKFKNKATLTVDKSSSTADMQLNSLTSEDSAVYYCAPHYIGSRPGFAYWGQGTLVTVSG VL: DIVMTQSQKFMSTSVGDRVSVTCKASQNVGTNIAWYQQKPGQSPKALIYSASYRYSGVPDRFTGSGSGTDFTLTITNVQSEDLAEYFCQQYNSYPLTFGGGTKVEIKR | 0.06 |
| S009-F7.48.1 (antibody, human IgG1, kappa, V domains shown, Human-murine chimeric antibody, human IgG1 heavy and kappa light constant regions) VH: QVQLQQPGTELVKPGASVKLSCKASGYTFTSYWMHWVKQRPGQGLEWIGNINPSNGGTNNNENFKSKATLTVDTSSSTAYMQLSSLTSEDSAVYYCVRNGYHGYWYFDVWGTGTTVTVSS VL: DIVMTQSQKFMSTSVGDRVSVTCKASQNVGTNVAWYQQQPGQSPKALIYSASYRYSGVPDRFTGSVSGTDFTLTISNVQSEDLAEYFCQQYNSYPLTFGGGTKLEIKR | 0.05 |

Consider the additional binder presented here.
Problem: // returns reported OD450 for input S009-F7.26.15 (antibody, human IgG1, kappa, V domains shown, Human-murine chimeric antibody, human IgG1 heavy and kappa light constant regions) VH: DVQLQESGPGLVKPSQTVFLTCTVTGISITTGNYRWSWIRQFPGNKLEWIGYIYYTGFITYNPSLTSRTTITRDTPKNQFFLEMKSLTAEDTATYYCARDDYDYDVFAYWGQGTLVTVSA VL: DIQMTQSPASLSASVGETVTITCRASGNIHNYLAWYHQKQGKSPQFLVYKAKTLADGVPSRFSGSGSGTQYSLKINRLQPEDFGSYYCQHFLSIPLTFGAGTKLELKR
Result: 0.05
